Taken from PubChem BioAssay (NCI).

# System: RPMI-8226 leukemia
# protocol notes: NCI-60 one-dose screen, 48 h (100 = growth as untreated, 0 = no growth, -100 = all killed)
# condition summary: 10 µM unless noted
About 83,000 compounds went through this panel and 20% of them were active in at least one assay; those are over-represented in the sample as a whole.
property label: growth (%)
Report the figure in % without appending any unit label.

Consider CC(C)CC(CC1=CCC2CC1C2(C)C)C1=C(O)C(C)(C)C(=O)C(C)(C)C1=O (configuration not stated) . Its measured growth is -26.4

Consider `COc1ccc(-c2cc(NC(=O)Nc3ccc(O)cc3)no2)cc1` . Its measured growth is 82.1

Consider CC1(C)CC(C(=O)OCCCCCCCCCCC[P+](c2ccccc2)(c2ccccc2)c2ccccc2)C(C)(C)N1O (configuration not stated) . Its measured growth is -43.8

Consider `CC(=O)CC(C)(C)c1ccc(Cl)cc1` . Its measured growth is 98.3

Consider C=C1CC2(OC1=O)C(=O)N(CCCCCCCN1C(=O)C3(CC(=C)C(=O)O3)c3ccccc31)c1ccccc12 (configuration not stated) . Its measured growth is -28.1

Consider `c1ccc(Sc2ncnc3ccccc23)cc1` . Its measured growth is 20.9

Consider `O=C(Nc1cccc2[nH]c(C(F)(F)F)nc12)c1ccc(Br)cc1F` . Its measured growth is 4.55

Consider CCC(c1ccccc1)C(CC)c1ccc(O)c(O)c1 (configuration not stated) . Its measured growth is 102

Consider `CCCCN(CC)CCCCCCCCCCN1CCCc2cc(OC)ccc21` . Its measured growth is -18.4

Consider `CCCCCCNC(=O)Oc1ccc(/C(=C(\C)c2ccccc2)c2ccc(OCCN(CC)CC)cc2)cc1` . Its measured growth is 22.1

Consider `CCN(CC)CCC(=O)c1ccc(OC)c2ccccc12` . Its measured growth is 8.95

Consider `Nc1cccc(-c2nc3sccn3c2-c2ccnc(NCCCNS(=O)(=O)c3ccc(C(F)(F)F)cc3)n2)c1` . Its measured growth is -29.7

Consider `CC/C=C\C[C@H](F)C/C=C1/C(=O)C=C[C@@H]1C/C=C\CCCC(=O)O` . Its measured growth is -3.41

Consider `COc1cccc(/C=C\C(=O)c2ccccc2)c1` . Its measured growth is 6.17

Consider `C=C1C(=O)O[C@H]2[C@H]1CC/C(Cn1cc(Cn3ccc4ccccc43)nn1)=C\CC[C@@]1(C)O[C@@H]21` . Its measured growth is -34.6

Consider `CC/C(Cc1ccccc1)=C(/c1ccc(O)cc1)c1ccc(OCCN2CCCC2)cc1` . Its measured growth is -44.1

Consider CSc1ncnc2c1ncn2C1CCCO1 (configuration not stated) . Its measured growth is 104

Consider COc1c(C2CC(=O)Nc3c2cnn3Cc2ccco2)cc2c(c1OC)OCO2 (configuration not stated) . Its measured growth is -1.94

Consider `COc1cc2c(=O)n(CC3CCCCC3)c3c4cc[nH]c4ncc3c2cc1OC` . Its measured growth is 34.5

Consider `COc1ccc(-c2c3c(nc4n[nH]c(-c5ccc(Cl)cc5)c24)-c2ccccc2C(=O)C3=O)cc1` . Its measured growth is -11.4

Consider `COc1cc(NCCCCN=C(N)N)c2ncccc2c1` . Its measured growth is 87.7

Consider `C[C@]12C[C@@H](c3ccoc3)OC(=O)[C@@H]1CC[C@]1(C)[C@@H]2CC[C@@H](O)[C@]1(C)O` . Its measured growth is 101

Consider `COc1ccc(C(=O)c2sc3nc4c(c(C(F)(F)F)c3c2N)CN(C(C)=O)CC4)cc1OC` . Its measured growth is 57.1

Consider `CCCCCC(=O)N(CCCC)CCCC` . Its measured growth is 93.8

Consider `O=C1/C(=C/c2ccccc2)CN(CCC(=O)N2C/C(=C\c3ccccc3)C(=O)/C(=C/c3ccccc3)C2)C/C1=C\c1ccccc1` . Its measured growth is -18.8

Consider `CCCCCCCCOC(=O)CC[C@@H](C)[C@H]1CC[C@H]2[C@@H]3[C@H](OC(=O)CCN)C[C@@H]4C[C@H](OC(=O)CCN)CC[C@]4(C)[C@H]3C[C@H](OC(=O)CCN)[C@]12C` . Its measured growth is 77.8

Consider `COc1ccc(-c2cc(C(=O)N=Nc3c(O)[nH]c4ccccc34)no2)cc1` . Its measured growth is 96.9

Consider N#CC1=C(N)Oc2c(ccc3ccccc23)C1c1cccs1 (configuration not stated) . Its measured growth is -17.3

Consider `Nc1nc2ccc(-c3nc4ccc5[nH]ncc5c4c4c3CCC4)cc2s1` . Its measured growth is -49

Consider `COC(=S)SCN(CSC(=S)OC)c1ccc(Cl)cc1` . Its measured growth is 73.1

Consider `O=c1ccc2cc3ccccc3cc2[nH]1` . Its measured growth is 87.4

Consider O=C1Nc2ccccc2C12CC(c1ccccc1)=NN2 (configuration not stated) . Its measured growth is 47.3

Consider `CC(C)n1cc2c(N)ncnc2n1` . Its measured growth is 107

Consider `COc1cnc2c(c1)C(=O)c1c-2n(CCCN2CCN(C)CC2)c(=O)c2cc([N+](=O)[O-])ccc12` . Its measured growth is -41.6

Consider COc1ccc(CN(c2ccc(C)cc2)C2OC(=O)c3ccccc32)cc1OC (configuration not stated) . Its measured growth is 93.9

Consider CCN(CC)CC(C)Nc1ccc([N+](=O)[O-])c2sc3ccccc3c(=O)c12 (configuration not stated) . Its measured growth is -29.7

Consider `O=c1cc(-c2ccccc2)[nH]c2ccccc12` . Its measured growth is 22.4

Consider `COc1cc(-c2nc3ccccc3s2)ccc1NC(=O)COc1ccc(Cl)cc1` . Its measured growth is 63.5

Consider `NC(=S)N/N=C/c1ccc(OCc2ccccc2)cc1` . Its measured growth is 1.94

Consider `Oc1ccccc1/C=N/Nc1ccc2ccccc2n1` . Its measured growth is 35.2

Consider OCC1C2C=CC(C2)C1CO (configuration not stated) . Its measured growth is 97

Consider `COc1ccc2nc3cc(Cl)ccc3c(N3CCN(c4nccc(NCc5ccccc5)n4)CC3)c2c1` . Its measured growth is 63.2
